target: MERTK (UniProt Q12866)
Sequence (Q12866 whole entry, looked up): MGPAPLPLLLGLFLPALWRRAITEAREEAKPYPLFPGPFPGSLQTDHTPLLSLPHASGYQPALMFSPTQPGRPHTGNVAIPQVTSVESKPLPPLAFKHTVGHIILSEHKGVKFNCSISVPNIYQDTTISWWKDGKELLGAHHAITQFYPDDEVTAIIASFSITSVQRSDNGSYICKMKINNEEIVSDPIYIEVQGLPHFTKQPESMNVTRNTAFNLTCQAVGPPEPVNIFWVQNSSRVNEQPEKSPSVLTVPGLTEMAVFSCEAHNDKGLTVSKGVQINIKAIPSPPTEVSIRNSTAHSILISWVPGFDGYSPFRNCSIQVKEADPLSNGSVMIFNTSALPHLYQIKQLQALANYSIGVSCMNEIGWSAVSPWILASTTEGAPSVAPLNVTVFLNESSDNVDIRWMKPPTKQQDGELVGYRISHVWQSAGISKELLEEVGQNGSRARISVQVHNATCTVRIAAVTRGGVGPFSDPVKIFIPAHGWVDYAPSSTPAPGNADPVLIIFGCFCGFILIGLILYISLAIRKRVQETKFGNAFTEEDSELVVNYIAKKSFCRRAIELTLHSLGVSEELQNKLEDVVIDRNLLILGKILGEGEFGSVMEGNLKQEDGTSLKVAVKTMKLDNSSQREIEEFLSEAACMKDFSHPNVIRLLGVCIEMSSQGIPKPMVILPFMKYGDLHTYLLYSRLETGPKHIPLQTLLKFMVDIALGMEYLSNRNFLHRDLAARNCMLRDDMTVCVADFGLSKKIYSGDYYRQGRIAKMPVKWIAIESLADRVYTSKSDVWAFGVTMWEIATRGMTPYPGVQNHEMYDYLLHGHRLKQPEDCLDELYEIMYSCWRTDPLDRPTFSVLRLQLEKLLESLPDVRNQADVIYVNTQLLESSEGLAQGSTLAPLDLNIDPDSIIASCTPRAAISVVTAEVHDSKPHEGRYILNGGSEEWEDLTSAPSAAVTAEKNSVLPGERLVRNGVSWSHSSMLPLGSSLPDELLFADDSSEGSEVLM
assay.procedure: phosphorylation enrichment, bacterial display (enrichment ratio); higher = better substrate or ligand; peptides without Tyr show the background;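 further: 11-residue human phosphosite peptides and single-mutation variants displayed on the E. coli surface, counted by deep sequencing, each peptide's frequency after selection divided by its frequency in the unselected input library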;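 further: frequency after pTyr selection over input frequency; kinase dosed for 20-30% of maximal phosphorylation in three min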
Please assign a class to every record based on measured phosphorylation enrichment, with ranges lower level: < 0.4; middle level: ≥ 0.4 and < 0.6; upper level: ≥ 0.6

Observe how each entry below is paired with its result.
>>> df
                     sequence_record   class_label
0     TTGGFYSYGGG [KRT24_Y120_A115T]   upper level
1    DLDATYRPMFS [JUP_Y701_M697L_YF]   lower level
2     KPIETYFSKNF [PLP1_Y50_L46P_YF]  middle level
3           DLVSEYQQYQD [TUBB3_Y422]  middle level
4        YGSSSSGGAGG [RPA2_Y14_Y14S]   lower level
5     YETVKYINNER [ABCB7_Y345_F346I]   upper level
6  TSFQMYDKGLV [IARS2_Y231_F227S_YF]  middle level
7             ERPGVYTNVVE [F11_Y608]   lower level

Any idea which band FLRTGYSVPFG [TGM1_Y370_YF] is in?
middle level

Any idea which band LVMFIYAIFGM [SCN1A_Y1684] is in?
upper level

Any idea which band YRKNIYNVKST [SYNE2_Y575] is in?
lower level

Any idea which band DGLASYLDKVR [KRT12_Y139_R135G] is in?
middle level
